- testDetails: APR_HepG2_MitoMass_24hr: Apredica 24-hour HepG2 Assay for Mitochondrial Mass (AID 2282912)
- details: high-content imaging, actives raise or lower the signal
The source made the active and inactive calls. How the source made its calls: active means hit-call score of the fitted dose curve at least 0.9, where 1 is the maximum; inactive means score below 0.9.
metricName: outcome

1. O=C(O)CCCOc1ccc(Cl)cc1Cl ... inactive
2. COP(=O)(OC)OC=C(Cl)Cl ... inactive
3. CCOc1nc(NC)nc(NC(=O)NS(=O)(=O)c2ccccc2C(=O)OC)n1 ... inactive
4. CC(C)OC(=O)Nc1cccc(Cl)c1 ... inactive
5. OCCOc1ccccc1 ... inactive
6. CNC(=O)Oc1cccc(N=CN(C)C)c1 ... inactive
7. COC(=O)c1ccccc1CS(=O)(=O)NC(=O)Nc1nc(OC)cc(OC)n1 ... inactive
8. C[C@H]1[C@H](c2ccc(Cl)cc2)SC(=O)N1C(=O)NC1CCCCC1 ... inactive
9. Clc1ccccc1-c1nnc(-c2ccccc2Cl)nn1 ... inactive
10. O=[N+]([O-])c1c(Cl)c(Cl)c(Cl)c(Cl)c1Cl ... inactive

Looking for the measured outcome of CC1(c2ccc(Oc3ccccc3)cc2)OC(=O)N(Nc2ccccc2)C1=O (stereo not drawn) , can you help?
inactive

Also need COP(=S)(OC)Oc1ccc([N+](=O)[O-])cc1 , thanks.
inactive

Also need N#CN , thanks.
inactive

###

- testDetails: CCTE_Shafer_MEA_dev_per_network_spike_spike_number_mean: CCTE's Neural Network Formation Assay for Mean Number of Spikes in a Network Spike, Shafer Lab (AID 2284053)
- Procedure: CCTE_Shafer_MEA_dev assay is conducted using Axion Biosystems 48 well microelectrode array (MEA) plates and Maestro recording system. Each well of the MEA plate contains a grid of 16 microelectrodes embedded in the culture surface. Electrically active cells, such as neurons, can be cultured over the electrodes, and electrical activity in these cells can be recorded extracellularly. […]
Active and inactive are the calls of the source. The calls were made as follows: active = hit-call score of the fitted dose curve at least 0.9, where 1 is the maximum; inactive = score below 0.9.
Just give me one of these, please: active, inactive

Here's what some known entries look like.
1. CC1(c2ccc(Oc3ccccc3)cc2)OC(=O)N(Nc2ccccc2)C1=O (stereo unspecified) ... active
2. O=S1OCC2C(CO1)C1(Cl)C(Cl)=C(Cl)C2(Cl)C1(Cl)Cl (stereo unspecified) ... active
3. ClC1C(Cl)C(Cl)C(Cl)C(Cl)C1Cl (stereo unspecified) ... inactive
4. COP(=S)(OC)Oc1ccc([N+](=O)[O-])cc1 ... active
5. Oc1cc(Cl)ccc1Oc1ccc(Cl)cc1Cl ... active

Dear all, I need the recorded test outcome for O=C(O)COc1ccc(Cl)cc1Cl , thank you.
inactive

###

- measuredOn: human RAR-related Orphan Receptor gamma (RORg), RORC (gene 6097) (UniProt P51449)
- Sequence (P51449 whole entry, looked up): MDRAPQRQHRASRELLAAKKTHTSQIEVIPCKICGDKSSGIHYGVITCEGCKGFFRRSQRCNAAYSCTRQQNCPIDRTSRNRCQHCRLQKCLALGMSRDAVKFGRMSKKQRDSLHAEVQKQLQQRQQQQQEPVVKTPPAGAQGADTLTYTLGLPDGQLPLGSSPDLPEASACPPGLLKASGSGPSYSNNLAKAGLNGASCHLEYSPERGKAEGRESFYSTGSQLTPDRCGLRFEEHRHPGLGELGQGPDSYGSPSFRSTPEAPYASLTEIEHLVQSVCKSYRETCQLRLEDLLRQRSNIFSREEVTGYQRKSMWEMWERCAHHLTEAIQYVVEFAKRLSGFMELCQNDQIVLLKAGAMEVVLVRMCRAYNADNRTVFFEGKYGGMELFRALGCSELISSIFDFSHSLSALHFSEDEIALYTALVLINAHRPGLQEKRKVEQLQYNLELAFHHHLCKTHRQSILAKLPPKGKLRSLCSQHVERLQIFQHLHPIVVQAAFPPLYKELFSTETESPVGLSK
- testDetails: ATG_RORg_TRANS: Attagene TRANS-FACTORIAL HepG2 Assay for human RAR-related Orphan Receptor gamma (RORg) (AID 2283011)
Inconclusive results are not listed. Calls of active or inactive are those of the source. The calls were made as follows: active = hit-call score of the fitted dose curve at least 0.9, where 1 is the maximum; inconclusive = response in the unintended direction; inactive = score below 0.9.
metricName: outcome

Examples from the recorded data:
1) CCCN(CCOc1c(Cl)cc(Cl)cc1Cl)C(=O)n1ccnc1 ... inactive
2) COc1nn(CSP(=S)(OC)OC)c(=O)s1 ... inactive
3) CCC(C)(C)C(=O)OC1=C(c2ccc(Cl)cc2Cl)C(=O)OC12CCCCC2 ... inactive
4) O=C(Nc1ccccc1)Nc1cnns1 ... inactive
5) CCS(=O)(=O)c1cccnc1S(=O)(=O)NC(=O)Nc1nc(OC)cc(OC)n1 ... inactive

Looking for the measured outcome of CC(C)(C)C(O)C(Oc1ccc(Cl)cc1)n1cncn1 (configuration not stated) , can you help?
inactive

Also need CCN(CC)C(=O)SCc1ccc(Cl)cc1 , thanks.
inactive

Also need [2H]C1([2H])[n+]2ccccc2-c2cccc[n+]2C1([2H])[2H] , thanks.
inactive

###

- measuredOn: Retinoic acid receptor alpha (Homo sapiens) (UniProt P10276)
- Sequence (P10276 whole entry, looked up): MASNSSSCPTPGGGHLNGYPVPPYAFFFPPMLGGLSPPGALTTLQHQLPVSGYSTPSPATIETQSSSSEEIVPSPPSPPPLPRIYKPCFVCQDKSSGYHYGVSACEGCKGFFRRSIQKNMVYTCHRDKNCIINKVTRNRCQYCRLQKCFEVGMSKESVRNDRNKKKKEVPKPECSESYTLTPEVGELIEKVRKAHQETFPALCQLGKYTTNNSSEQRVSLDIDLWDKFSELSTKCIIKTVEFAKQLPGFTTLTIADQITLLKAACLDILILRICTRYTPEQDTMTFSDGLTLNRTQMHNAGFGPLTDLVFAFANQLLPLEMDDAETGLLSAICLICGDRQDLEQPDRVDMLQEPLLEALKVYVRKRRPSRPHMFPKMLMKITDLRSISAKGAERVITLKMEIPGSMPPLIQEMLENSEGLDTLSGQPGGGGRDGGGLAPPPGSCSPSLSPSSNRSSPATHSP
- testDetails: ATG_DR5_RAR_CIS: Attagene CIS-FACTORIAL HepG2 Assay for human Retinoic Acid Receptor Alpha (RARE), DR5 submotif (AID 2282934)
- details: HepG2 Attagene cis-factorial RARE DR5 reporter, mRNA; actives raise or lower the signal
Calls of active or inactive are those of the source. How the source made its calls: active means hit-call score of the fitted dose curve at least 0.9, where 1 is the maximum; inactive means score below 0.9.
Just give me one of these, please: active, inactive

Dear all, I need the recorded test outcome for CNC(=O)Oc1cccc(N=CN(C)C)c1 , thank you.
inactive

###

- Read-out: CD40, CD40 (gene 958)
- testDetails: BSK_SAg_CD40: BioMAP Diversity Plus: SAg Assay for CD40 Biomarker Activity (AID 2283088)
- details: primary human HUVEC with PBMC; actives raise or lower the signal
Activity calls are given as the source filed them. The calls were made as follows: active = hit-call score of the fitted dose curve at least 0.9, where 1 is the maximum; inactive = score below 0.9.
metricName: AC50

1) COP(=S)(OC)Oc1ccc(SC)c(C)c1 ... inactive
2) CCC(C)(NC(=O)c1cc(Cl)c(C)c(Cl)c1)C(=O)CCl (stereo unspecified) ... 7.22 µM (active)
3) O=S1OCC2C(CO1)C1(Cl)C(Cl)=C(Cl)C2(Cl)C1(Cl)Cl (stereo unspecified) ... 16.3 µM (active)
4) CCOc1nc(NC)nc(NC(=O)NS(=O)(=O)c2ccccc2C(=O)OC)n1 ... inactive
5) CC1(c2ccc(Oc3ccccc3)cc2)OC(=O)N(Nc2ccccc2)C1=O (stereo unspecified) ... 15.8 µM (active)
6) COC(=O)c1ccccc1CS(=O)(=O)NC(=O)Nc1nc(OC)cc(OC)n1 ... inactive
7) OCCOc1ccccc1 ... inactive
8) C[C@H]1[C@H](c2ccc(Cl)cc2)SC(=O)N1C(=O)NC1CCCCC1 ... 15.4 µM (active)
9) CCC(C)(C)C(=O)OC1=C(c2ccc(Cl)cc2Cl)C(=O)OC12CCCCC2 ... 10.6 µM (active)
10) CCOC1Oc2ccc(OS(C)(=O)=O)cc2C1(C)C (stereo unspecified) ... inactive

Looking for the measured AC50 of CC[C@H](C)[C@H]1O[C@]2(C=C[C@@H]1C)C[C@@H]1C[C@@H](C/C=C(\C)[C@@H](O[C@H]3C[C@H](OC)[C@@H](O[C@H]4C[C@H](OC)[C@@H](O)[C@H](C)O4)[C@H](C)O3)[C@@H](C)/C=C/C=C3\CO[C@@H]4[C@H](O)C(C)=C[C@@H](C(=O)O1)[C@]34O)O2 (tested in a mixture with another compound) , can you help?
5.74 µM (active)

Also need O=C(NC(=O)c1c(F)cccc1F)Nc1ccc(OC(F)(F)C(F)OC(F)(F)F)c(Cl)c1 (stereo unspecified) , thanks.
inactive

Also need CNC(=O)CSP(=S)(OC)OC , thanks.
inactive

Also need [2H]C1([2H])[n+]2ccccc2-c2cccc[n+]2C1([2H])[2H] , thanks.
inactive

Also need Cc1cc(C)nc(NC(=O)NS(=O)(=O)c2ccccc2C(=O)OC2COC2)n1 , thanks.
inactive

Also need ClC1C(Cl)C(Cl)C(Cl)C(Cl)C1Cl (stereo unspecified) , thanks.
inactive

###

- testDetails: CCTE_Shafer_MEA_acute_per_network_burst_electrodes_number_mean: CCTE's Neural Acute Assay for Mean Number of Electrodes in a Network Burst, Shafer Lab (AID 2284021);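 further: curves fitted for decreases only so hits reduce electrodes per burst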
Calls of active or inactive are those of the source. Rule for the calls: active = hit-call score of the fitted dose curve at least 0.9, where 1 is the maximum; inactive = score below 0.9.
Just give me one of these, please: active, inactive

1) C[C@H]1[C@H](c2ccc(Cl)cc2)SC(=O)N1C(=O)NC1CCCCC1 ... inactive
2) Oc1cc(Cl)ccc1Oc1ccc(Cl)cc1Cl ... inactive
3) N#CN ... inactive
4) CC[C@H](C)[C@H]1O[C@]2(C=C[C@@H]1C)C[C@@H]1C[C@@H](C/C=C(\C)[C@@H](O[C@H]3C[C@H](OC)[C@@H](O[C@H]4C[C@H](OC)[C@@H](O)[C@H](C)O4)[C@H](C)O3)[C@@H](C)/C=C/C=C3\CO[C@@H]4[C@H](O)C(C)=C[C@@H](C(=O)O1)[C@]34O)O2 (tested in a mixture with another compound) ... active
5) CCC(C)(C)C(=O)OC1=C(c2ccc(Cl)cc2Cl)C(=O)OC12CCCCC2 ... inactive
6) COP(=S)(OC)Oc1ccc(SC)c(C)c1 ... inactive
7) CC(C)N(C(=O)COc1nnc(C(F)(F)F)s1)c1ccc(F)cc1 ... inactive
8) O=C(O)CCCOc1ccc(Cl)cc1Cl ... inactive
9) O=[N+]([O-])/N=C1\NCCN1Cc1ccc(Cl)nc1 ... inactive
10) O=S(=O)(O)C(F)(F)C(F)(F)C(F)(F)C(F)(F)C(F)(F)C(F)(F)C(F)(F)C(F)(F)F ... inactive

Dear all, I need the recorded test outcome for N#Cc1c(Cl)c(Cl)c(Cl)c(C#N)c1Cl , thank you.
inactive

Also need Clc1ccccc1-c1nnc(-c2ccccc2Cl)nn1 , thanks.
inactive

Also need CNC(=O)CSP(=S)(OC)OC , thanks.
inactive

Also need CC(C)OC(=O)Nc1cccc(Cl)c1 , thanks.
active

###

- Read-out: Cytochrome P450 3A4 (Homo sapiens)
- testDetails: LTEA_HepaRG_CYP3A4: Life Technologies and Expression Analysis (LTEA) Assay for CYP3A4 using HepaRG (AID 2283487)
- details: mRNA level, 48 h; actives raise or lower the signal
Calls of active or inactive are those of the source. The calls were made as follows: active = hit-call score of the fitted dose curve at least 0.9, where 1 is the maximum; inactive = score below 0.9.
Just give me one of these, please: yes (1) for active, no (0) for inactive

Here's what some known entries look like.
1. Oc1cc(Cl)ccc1Oc1ccc(Cl)cc1Cl ... no (0)
2. CNC(=O)Oc1ccccc1OC(C)C ... yes (1)
3. CCOC1Oc2ccc(OS(C)(=O)=O)cc2C1(C)C (configuration not stated) ... yes (1)
4. Cc1[nH]c(=O)n(C(C)(C)C)c(=O)c1Cl ... no (0)
5. CCN(CC)C(=O)SCc1ccc(Cl)cc1 ... yes (1)
6. C#CCN1C(=O)COc2cc(F)c(N3C(=O)C4=C(CCCC4)C3=O)cc21 ... yes (1)
7. CC1(c2ccc(Oc3ccccc3)cc2)OC(=O)N(Nc2ccccc2)C1=O (configuration not stated) ... yes (1)
8. CC1(C)C(C=C(Cl)Cl)C1C(=O)OC(C#N)c1ccc(F)c(Oc2ccccc2)c1 (configuration not stated) ... yes (1)

Dear all, I need the recorded test outcome for COc1nn(CSP(=S)(OC)OC)c(=O)s1 , thank you.
no (0)

Also need COP(=S)(OC)Oc1ccc([N+](=O)[O-])cc1 , thanks.
no (0)

Also need CCCN(CCC)c1c([N+](=O)[O-])cc(C(F)(F)F)cc1[N+](=O)[O-] , thanks.
no (0)

Also need C[C@H]1[C@H](c2ccc(Cl)cc2)SC(=O)N1C(=O)NC1CCCCC1 , thanks.
yes (1)

Also need CCc1ccc(C(=O)NN(C(=O)c2cc(C)cc(C)c2)C(C)(C)C)cc1 , thanks.
yes (1)

Also need O=C(O)CCCOc1ccc(Cl)cc1Cl , thanks.
no (0)

Also need CC[C@H](C)[C@H]1O[C@]2(C=C[C@@H]1C)C[C@@H]1C[C@@H](C/C=C(\C)[C@@H](O[C@H]3C[C@H](OC)[C@@H](O[C@H]4C[C@H](OC)[C@@H](O)[C@H](C)O4)[C@H](C)O3)[C@@H](C)/C=C/C=C3\CO[C@@H]4[C@H](O)C(C)=C[C@@H](C(=O)O1)[C@]34O)O2 (tested in a mixture with another compound) , thanks.
yes (1)

Also need CNC(=O)/C=C(\C)OP(=O)(OC)OC , thanks.
no (0)

Also need COP(=O)(OC)OC=C(Cl)Cl , thanks.
no (0)

Also need CCC(C)Nc1c([N+](=O)[O-])cc(C(C)(C)C)cc1[N+](=O)[O-] (configuration not stated) , thanks.
yes (1)

Also need CC(C)N(C(=O)COc1nnc(C(F)(F)F)s1)c1ccc(F)cc1 , thanks.
no (0)

Also need O=C(O)COc1ccc(Cl)cc1Cl , thanks.
no (0)

Also need CC(C)(C)C(O)/C(=C\c1ccc(Cl)cc1Cl)n1cncn1 (configuration not stated) , thanks.
yes (1)

Also need CN1CSC(=S)N(C)C1 , thanks.
no (0)

Entry source: PubChem BioAssay (EPA / NIEHS)
